- Test system: U251 CNS
- experiment_description: NCI tumour cell line growth inhibition, 48 h
Where a SMILES comes first, the peptide text is derived from it. The star is where a group is joined. Cbz = O=C(OCc1ccccc1)*

>  <molecule>
COc1cc(/C=C/C(=O)C(C(=O)/C=C/c2ccc(OC(=O)CCNC34CC5CC(CC(C5)C3)C4)c(OC)c2)C(=O)CCNC23CC4CC(CC(C4)C2)C3)ccc1OC(=O)CCNC12CC3CC(CC(C3)C1)C2 (stereo not given)

>  <unit_annotation>
µM

>  <modifier_sign>
=

>  <TGI>
11.3

$$$$
>  <molecule>
COc1ccc(/C=N/n2cnc3c(c2=O)SC(=C(C#N)C#N)N3c2ccccc2)cc1

>  <unit_annotation>
µM

>  <modifier_sign>
>

>  <TGI>
100

$$$$
>  <molecule>
Cc1ccc(C)c(N2C(=O)C(=O)C(c3nc4ccccc4o3)/C(=N/N)C2=O)c1 (stereo not given)

>  <unit_annotation>
µM

>  <modifier_sign>
>

>  <TGI>
100

$$$$
>  <molecule>
CCOC(=O)CCC(NC(=O)C(Cc1ccccc1)NC(=O)OCc1ccccc1)C(=O)OCC (stereo not drawn) (Cbz-Phe-Glu(OEt)-OEt; configuration not given here)

>  <unit_annotation>
µM

>  <modifier_sign>
=

>  <TGI>
28.9

$$$$
>  <molecule>
COc1cc(Nc2nc3cc(C(F)(F)F)ccc3nc2C(=O)O)cc(OC)c1OC

>  <unit_annotation>
µM

>  <modifier_sign>
>

>  <TGI>
100

$$$$
>  <molecule>
COC(=O)[C@]12CC[C@@H](C)[C@H](C)[C@@H]1C1=CC[C@@H]3[C@@]4(C)C(C=O)=C[C@@](C)(COC(=O)c5ccco5)[C@@H]4[C@H](O)C[C@@]3(C)[C@]1(C)CC2

>  <unit_annotation>
µM

>  <modifier_sign>
=

>  <TGI>
2.91

$$$$
>  <molecule>
O=Cc1ccc(-c2ccc(-c3ccc(CO)s3)o2)s1

>  <unit_annotation>
µM

>  <modifier_sign>
>

>  <TGI>
42.1

$$$$
>  <molecule>
CCC(=O)OCN(C)c1nc(N(C)COC(=O)CC)nc(N(C)COC(=O)CC)n1

>  <unit_annotation>
µM

>  <modifier_sign>
>

>  <TGI>
100

$$$$
>  <molecule>
CCOC(=O)C1=C(N)Oc2c(sc3c(C)cccc23)C1c1ccc(F)cc1 (stereo not given)

>  <unit_annotation>
µM

>  <modifier_sign>
=

>  <TGI>
17

$$$$
>  <molecule>
c1ccc2c3[nH]c(c2c1)=Nc1ccc(cc1)-c1nc2ccc(cc2o1)N=c1[nH]c(c2ccccc12)=Nc1ccc2nc(oc2c1)-c1ccc(cc1)N=3

>  <unit_annotation>
µM

>  <modifier_sign>
=

>  <TGI>
88.3

$$$$
>  <molecule>
O=C1OCC2OC(=O)c3cc(O)c(O)c(O)c3-c3c(O)c(O)c(O)c4c3C(=O)OC(C2OC(=O)c2cc(O)c(O)c(O)c2-c2c1cc(O)c(O)c2O)C1OC(=O)C2C4=C(O)C(=O)C23Oc2cc(O)c4c(c2[C@H]13)O[C@H](c1ccc(O)c(O)c1)[C@@H](O)C4 (stereo not given in full)

>  <unit_annotation>
µM

>  <modifier_sign>
=

>  <TGI>
42.7

$$$$
>  <molecule>
O=c1[nH]c2nc3ccccc3c(=O)n2/c1=C/c1cccs1

>  <unit_annotation>
µM

>  <modifier_sign>
>

>  <TGI>
100

$$$$
>  <molecule>
Oc1c(Br)ccc2cccnc12

>  <unit_annotation>
µM

>  <modifier_sign>
>

>  <TGI>
100

$$$$
>  <molecule>
CCOC(=O)C(C)(c1c(C)[nH]c2ccccc12)c1c(C)[nH]c2ccccc12

>  <unit_annotation>
µM

>  <modifier_sign>
=

>  <TGI>
33.4

$$$$
>  <molecule>
Nc1c(S(=O)(=O)c2ccccc2)c2nc3ccccc3nc2n2c1nc1ccccc12

>  <unit_annotation>
µM

>  <modifier_sign>
>

>  <TGI>
47.5

$$$$

---

- Tested on: SK-MEL-2 melanoma
- experiment_description: NCI tumour cell line growth inhibition, 48 h
Documented GI50 across a set of molecules

>  <molecule>
COc1ccc(-c2nn(-c3cccc(Cl)c3)cc2-c2nc(N)[nH]c(=O)c2C#N)cc1

>  <GI50>
3.94 µM

$$$$
>  <molecule>
Cc1cc(NCCCCNc2ccnc3cc(Cl)ccc23)nc(Nc2ccc(C(=O)N3CCCCC3)cc2)n1

>  <GI50>
2.05 µM

$$$$
>  <molecule>
Cn1cc(-c2csc(-c3cn(C)c4ccc(F)cc34)n2)c2cnccc21

>  <GI50>
1.79 µM

$$$$
>  <molecule>
O=C(NC1CCCCC1)c1ccc(Nc2ncnc3c2cnn3-c2ccccc2)cc1

>  <GI50>
13.6 µM

$$$$
>  <molecule>
NCCCOc1cc2ccccc2cc1C(=O)NCCCOc1cc2ccccc2cc1C(=O)Nc1ccc(Cl)cc1O

>  <GI50>
1.21 µM

$$$$
>  <molecule>
COc1ccc2c(c1)c(-c1nc(-c3c[nH]c4ncccc34)cs1)cn2CCCCN1CCCCC1

>  <GI50>
1.8 µM

$$$$
>  <molecule>
COc1cc2c3c(n(CCCN(C)CCO)c(=O)c2cc1OC)-c1cc2c(cc1C3=O)OCO2

>  <GI50>
> 100 µM

$$$$
>  <molecule>
O=C(N[C@@H](Cc1coc2ccccc12)B(O)O)[C@@H]1C[C@H]2CC[C@@H]1O2

>  <GI50>
6.08 µM

$$$$
>  <molecule>
Oc1ccc(N=Nc2nccs2)c(O)c1

>  <GI50>
17.1 µM

$$$$
>  <molecule>
COc1cc(OC)c2sc(-c3ccc(-n4cncc4-c4cc(OC)c(OC)c(OC)c4)cc3)nc2c1

>  <GI50>
6.09 µM

$$$$

---

- System: IGROV1 ovarian
- experiment_description: NCI tumour cell line growth inhibition, 48 h
test_readout: TGI

>  <molecule>
CCCCCCCCCCCCCCCCCCC1=C(O)C(=O)C=C(OC)C1=O

>  <result>
> 100 µM

$$$$
>  <molecule>
COC(=O)N[C@H](C(=O)NC(OCc1ccccc1)C1COC(C)(C)O1)C(C)O[Si](C)(C)C(C)(C)C (stereo partly specified)

>  <result>
> 100 µM

$$$$
>  <molecule>
Cc1ccc(C(=O)NCc2ccccc2)cc1N=NN(C)C

>  <result>
> 100 µM

$$$$
>  <molecule>
CS(=O)(=O)N1CC(CCl)c2ccc(O)cc21 (stereo unspecified)

>  <result>
4.5 µM

$$$$
>  <molecule>
COc1ccc(/C=C/c2cnccn2)cc1OC

>  <result>
> 10 µM

$$$$
>  <molecule>
Cn1cc(S(=O)(=O)N2CCC3=Cc4c(cnn4-c4ccc(F)cc4)C[C@]3(C(=O)c3cc(C(F)(F)F)ccn3)C2)cn1

>  <result>
> 100 µM

$$$$
>  <molecule>
Cc1c2ccc3ccccc3c2c[n+]2ccccc12

>  <result>
> 100 µM

$$$$
>  <molecule>
c1ccc2c(c1)OCCOCCOc1ccccc1OCCO2

>  <result>
> 100 µM

$$$$
>  <molecule>
O=c1cc(CF)[nH]c(=S)[nH]1

>  <result>
> 100 µM

$$$$
>  <molecule>
COc1cc(/C=N\O[Si](C)(C)C(C)(C)C)ccc1O[Si](C)(C)C(C)(C)C

>  <result>
> 100 µM

$$$$
>  <molecule>
Cc1ccc2c(c1)CC1(Cc3cccc(C)c3C1=O)C2=O (stereo unspecified)

>  <result>
> 100 µM

$$$$

---

// GI50 lookup, one value per entry
- Test system: BT-549 breast
- experiment_description: NCI tumour cell line growth inhibition, 48 h

>  <molecule>
Nc1c(C(=O)Nc2ccccc2Cl)sc2nc3c(cc12)C(=O)CCC3

>  <GI50>
> 100000 nM

$$$$
>  <molecule>
O=C(NNc1cnccn1)c1nc2cc(F)ccc2n2cccc12

>  <GI50>
2240 nM

$$$$
>  <molecule>
COc1cc(C(=O)O[C@H](C(N)=O)[C@]2(C)CO2)c2cccc(C)c2c1

>  <GI50>
< 41.8 nM

$$$$
>  <molecule>
O=C(N/N=C/c1ccc(O)cc1O)c1cccnc1

>  <GI50>
7060 nM

$$$$
>  <molecule>
NCCCOc1cc2ccccc2cc1C(=O)NCCCOc1cc2ccccc2cc1C(=O)Nc1ccc(Cl)cc1O

>  <GI50>
1850 nM

$$$$

---

- Tested on: SK-MEL-28 melanoma
- experiment_description: NCI tumour cell line growth inhibition, 48 h
test_readout: GI50

>  <molecule>
NC(N)=N/N=C(\N=Nc1ccccc1)c1ccc(Cl)cc1

>  <result>
1.98 µM

$$$$
>  <molecule>
COc1ccc(-c2noc(N)c2-c2cc(OC)c3c(c2)OCO3)cc1

>  <result>
6.31 µM

$$$$
>  <molecule>
C=CCn1c(SCC(=O)Nc2ccc(C(=O)/C=C/c3cc(OC)c(OC)c(OC)c3)cc2)nnc1-c1ccc(OC)cc1

>  <result>
0.709 µM

$$$$
>  <molecule>
Cn1cc(S(=O)(=O)N2CCC3=Cc4c(cnn4-c4ccc(F)cc4)C[C@]3(C(=O)c3cc(C(F)(F)F)ccn3)C2)cn1

>  <result>
> 100 µM

$$$$
>  <molecule>
COc1ccc2c(c1)C(C)Cc1c(ncnc1-n1cnc3ccccc31)N2C (stereo not drawn)

>  <result>
10.1 µM

$$$$
>  <molecule>
O=C(Nc1ccc(Cl)cc1)Nc1nccs1

>  <result>
13.8 µM

$$$$
>  <molecule>
O=C(N[C@@H](Cc1coc2ccccc12)B(O)O)[C@@H]1C[C@H]2CC[C@@H]1O2

>  <result>
4.5 µM

$$$$
>  <molecule>
Cc1noc2c1-c1ccccc1C(c1ccc(Cl)cc1)=N[C@H]2CC(N)=O

>  <result>
7.38 µM

$$$$
>  <molecule>
NCCN.O=C([O-])[O-].O=C([O-])[O-].[Co+3].[K+]

>  <result>
> 100 µM

$$$$
>  <molecule>
O=C1c2ccccc2C(=O)c2c(NCCN=Cc3ccccc3O)cccc21

>  <result>
3.21 µM

$$$$
>  <molecule>
NC(=O)CNc1ccc([As]=[As]c2ccc(NCC(N)=O)cc2)cc1 (stereo not drawn)

>  <result>
4.01 µM

$$$$
>  <molecule>
CNC(C)[C@H]1CCC2C3CC=C4C(=O)[C@@H](NC(=O)C=C(C)C)CC[C@]4(C)C3CC[C@@]21C (stereo partly drawn)

>  <result>
1.69 µM

$$$$
>  <molecule>
Oc1ccc(N=Nc2nccs2)c(O)c1

>  <result>
10.4 µM

$$$$
